Assay: Pharmacokinetic analysis following intravenous administration to beagle dogs
Format: in vivo
Settings: male, dog, in vivo; beagle dogs, IV infusion over 30 min, 0.5 mg/kg; read-out: Vss
Method: Pharmacokinetic analysis was performed on various test compounds following intravenous or oral administration to beagle dogs. For pharmacokinetic analysis of intravenously administered compounds, the test compounds were formulated in 5% Ethanol, 55% PEG 300, and 40% water at 0.1 mg/mL for IV infusion. For pharmacokinetic analysis of orally administered compounds, the test compounds were formulated as an aqueous suspension in 0.1% Tween 20, 0.5% HPMC LV 100 in Di Water at 1 mg/kg. […]
Parameter Measured: Vd (L/kg)
Write the answer as a number in L/kg, unit excluded.

Name the recorded Vd for "O=C(NCc1ccc(F)cc1F)c1cn2c(c(O)c1=O)C(=O)N1[C@H]3CC[C@H](C3)[C@@H]1C2" .
0.1
